Target: PI3K beta (Homo sapiens)
Construct: for the full-length p110-b subunit are generated and fused by overlapping PCR; His tag (C); made in house; host or cells: baculovirus BV949; Tn5 (Trichoplusia ni) or TiniPro insect cells
Sequence (P42338 with tags, fused parts or gaps limits assumed): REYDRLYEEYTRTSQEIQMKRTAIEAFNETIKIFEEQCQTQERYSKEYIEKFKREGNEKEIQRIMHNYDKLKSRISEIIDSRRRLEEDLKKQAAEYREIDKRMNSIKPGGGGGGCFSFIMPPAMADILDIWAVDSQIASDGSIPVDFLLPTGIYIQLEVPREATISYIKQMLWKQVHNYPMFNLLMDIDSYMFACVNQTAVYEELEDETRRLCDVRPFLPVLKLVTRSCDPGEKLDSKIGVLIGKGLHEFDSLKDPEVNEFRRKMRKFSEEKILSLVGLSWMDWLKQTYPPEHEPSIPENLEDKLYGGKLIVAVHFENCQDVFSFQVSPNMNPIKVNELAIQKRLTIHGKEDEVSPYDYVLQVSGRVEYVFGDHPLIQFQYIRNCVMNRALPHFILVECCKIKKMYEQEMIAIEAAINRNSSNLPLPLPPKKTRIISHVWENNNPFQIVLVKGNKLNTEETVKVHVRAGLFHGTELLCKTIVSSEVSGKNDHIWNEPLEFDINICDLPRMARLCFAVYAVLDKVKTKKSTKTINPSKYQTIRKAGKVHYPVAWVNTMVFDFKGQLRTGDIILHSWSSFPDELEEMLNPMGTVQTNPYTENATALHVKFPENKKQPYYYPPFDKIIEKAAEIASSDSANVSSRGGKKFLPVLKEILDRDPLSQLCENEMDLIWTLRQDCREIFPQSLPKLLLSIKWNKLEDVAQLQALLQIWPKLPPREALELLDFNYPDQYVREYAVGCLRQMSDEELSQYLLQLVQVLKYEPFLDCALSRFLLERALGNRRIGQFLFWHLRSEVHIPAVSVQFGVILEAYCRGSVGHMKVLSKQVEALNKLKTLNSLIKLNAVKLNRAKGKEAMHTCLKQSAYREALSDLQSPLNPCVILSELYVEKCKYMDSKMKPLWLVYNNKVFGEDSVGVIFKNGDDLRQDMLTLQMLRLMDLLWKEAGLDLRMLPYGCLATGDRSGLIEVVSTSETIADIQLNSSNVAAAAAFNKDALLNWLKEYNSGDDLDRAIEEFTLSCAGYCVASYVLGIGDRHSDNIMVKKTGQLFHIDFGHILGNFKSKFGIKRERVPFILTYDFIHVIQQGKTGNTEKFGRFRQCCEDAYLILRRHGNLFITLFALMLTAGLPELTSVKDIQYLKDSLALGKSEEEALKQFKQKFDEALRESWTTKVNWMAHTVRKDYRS
Assay: PI3K beta kinase assay (Kinase-Glo luminescence)
Type: biochemical
Conditions: read-out: EPK_PI3Kbeta/IC50
Recorded Endpoint: IC50 (nM)

[[record]]
item_smiles = "COc1cc(-c2ccc3ncc4c(c3c2)n(-c2cccnc2C)c(=O)n4C)cnc1C(OC)OC"
study_target = "PI3K beta (Homo sapiens)"
measured_value = 1240

[[record]]
item_smiles = "CCOc1ccc(-c2ccc3ncc4c(c3c2)n(-c2ccc(N(C)C)nc2C)c(=O)n4C)cn1"
study_target = "PI3K beta (Homo sapiens)"
measured_value = 1970

[[record]]
item_smiles = "CCOc1ccc(-c2ccc3ncc4c(c3c2)n(-c2ccc(OCCOC)nc2C)c(=O)n4C)cn1"
study_target = "PI3K beta (Homo sapiens)"
measured_value = 1950

[[record]]
item_smiles = "CNc1ncc(-c2ccc3ncc4c(c3c2)n(-c2ccc(N3CC[C@@H](O)C3)nc2C)c(=O)n4C)cn1"
study_target = "PI3K beta (Homo sapiens)"
measured_value = 1100

[[record]]
item_smiles = "COCCN(C)c1ccc(-n2c(=O)n(C)c3cnc4ccc(-c5cnc(CO)c(OC)c5)cc4c32)c(C)n1"
study_target = "PI3K beta (Homo sapiens)"
measured_value = 15

[[record]]
item_smiles = "CCOc1cc(-c2ccc3ncc4c(c3c2)n(-c2ccc(F)nc2C)c(=O)n4C)cnc1COC"
study_target = "PI3K beta (Homo sapiens)"
measured_value = 152

[[record]]
item_smiles = "COc1cc(-c2ccc3ncc4c(c3c2)n(-c2ccc(F)nc2C)c(=O)n4C)cnc1CO"
study_target = "PI3K beta (Homo sapiens)"
measured_value = 20


###

Target: PI3K beta (Homo sapiens)
Construct: for the full-length p110-b subunit are generated and fused by overlapping PCR; His tag (C); made in house; host or cells: baculovirus BV949; Tn5 (Trichoplusia ni) or TiniPro insect cells
Experiment: PI3K beta kinase assay (Kinase-Glo luminescence)
Type: biochemical
Settings: read-out: EPK_PI3Kbeta/IC50
pIC50: −log10 of the molar value.
Label met when pIC50 >= 7; otherwise not met.

[[record]]
compound = "CCOCc1cc(-c2ccc3ncc4c(c3c2)n(-c2ccc(F)nc2C)c(=O)n4C)cnc1N [Example 7.15]"
group_label = "not met"

[[record]]
compound = "Cc1nc(F)ccc1-n1c(=O)n(C)c2cnc3ccc(-c4cnc(N)c(CO)c4)cc3c21 [Example 7.17]"
group_label = "not met"

[[record]]
compound = "CNc1ccc(-c2ccc3ncc4c(c3c2)n(-c2cnc(F)cc2C)c(=O)n4C)cn1 [Example 16.4]"
group_label = "not met"

[[record]]
compound = "CNc1ncc(-c2ccc3ncc4c(c3c2)n(-c2ccc(OCCOC)nc2C)c(=O)n4C)cn1 [Example 13.5]"
group_label = "not met"

[[record]]
compound = "CCOc1cc(-c2ccc3ncc4c(c3c2)n(-c2cccnc2C)c(=O)n4C)cnc1C [Example 2.22]"
group_label = "not met"

[[record]]
compound = "COCCOc1cc(-c2ccc3ncc4c(c3c2)n(-c2ccc(OC)nc2OC)c(=O)n4C)cnc1C [Example 8.9]"
group_label = "met"


###

Target: PI3K alfa (Homo sapiens, UniProt P42336)
Construct: His tag (C); made in house; host or cells: baculovirus BV1075; Tn5 (Trichoplusia ni) or TiniPro insect cells
Sequence (P42336 with tags, fused parts or gaps limits assumed): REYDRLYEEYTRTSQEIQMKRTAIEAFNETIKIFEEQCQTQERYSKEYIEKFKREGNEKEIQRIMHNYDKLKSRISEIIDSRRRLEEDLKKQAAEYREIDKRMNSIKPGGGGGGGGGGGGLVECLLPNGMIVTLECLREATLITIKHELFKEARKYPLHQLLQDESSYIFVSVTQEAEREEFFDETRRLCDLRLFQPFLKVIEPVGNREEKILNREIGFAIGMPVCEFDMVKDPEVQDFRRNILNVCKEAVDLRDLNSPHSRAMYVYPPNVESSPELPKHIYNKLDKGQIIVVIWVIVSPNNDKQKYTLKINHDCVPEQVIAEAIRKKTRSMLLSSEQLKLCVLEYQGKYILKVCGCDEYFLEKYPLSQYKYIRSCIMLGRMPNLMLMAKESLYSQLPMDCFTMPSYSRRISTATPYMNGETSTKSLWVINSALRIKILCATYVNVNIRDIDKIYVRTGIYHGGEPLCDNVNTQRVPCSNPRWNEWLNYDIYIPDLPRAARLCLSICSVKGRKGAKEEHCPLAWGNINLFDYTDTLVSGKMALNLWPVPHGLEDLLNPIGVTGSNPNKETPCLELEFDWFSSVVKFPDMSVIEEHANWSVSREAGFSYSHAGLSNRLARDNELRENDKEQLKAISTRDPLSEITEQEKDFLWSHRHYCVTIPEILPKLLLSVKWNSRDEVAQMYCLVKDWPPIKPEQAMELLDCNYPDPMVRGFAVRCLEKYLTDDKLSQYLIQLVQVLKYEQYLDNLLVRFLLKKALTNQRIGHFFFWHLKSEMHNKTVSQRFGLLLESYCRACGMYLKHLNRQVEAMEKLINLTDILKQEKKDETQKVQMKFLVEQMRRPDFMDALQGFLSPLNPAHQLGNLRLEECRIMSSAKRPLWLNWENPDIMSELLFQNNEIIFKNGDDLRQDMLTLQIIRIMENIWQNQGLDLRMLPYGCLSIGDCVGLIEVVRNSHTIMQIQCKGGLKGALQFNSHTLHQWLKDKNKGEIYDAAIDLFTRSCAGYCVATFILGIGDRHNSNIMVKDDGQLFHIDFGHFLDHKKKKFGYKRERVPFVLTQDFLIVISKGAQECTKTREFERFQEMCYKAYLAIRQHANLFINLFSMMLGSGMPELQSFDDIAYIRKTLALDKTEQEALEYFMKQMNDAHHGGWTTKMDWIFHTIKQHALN
Experiment: PI3K alpha kinase assay (Kinase-Glo luminescence)
Type: biochemical
Details: read-out: EPK_PI3Kalfa/IC50
Recorded Endpoint: IC50 (nM)

[[record]]
item_smiles = "COCc1ncc(-c2ccc3ncc4c(c3c2)n(-c2ccc(F)nc2C)c(=O)n4C)cc1OC"
recorded_endpoint = "IC50"
measured_value = 127

[[record]]
item_smiles = "Cc1nc(N(C)CCO)ccc1-n1c(=O)n(C)c2cnc3ccc(-c4cnc(N)c(C(F)(F)F)c4)cc3c21"
recorded_endpoint = "IC50"
measured_value = 12

[[record]]
item_smiles = "CCOc1cc(-c2ccc3ncc4c(c3c2)n(-c2ccc(OCCOC)nc2C)c(=O)n4C)cnc1COC"
recorded_endpoint = "IC50"
measured_value = 188

[[record]]
item_smiles = "COCCN(C)c1ccc(-n2c(=O)n(C)c3cnc4ccc(-c5cnc(N(C)C)nc5)cc4c32)c(C)n1"
recorded_endpoint = "IC50"
measured_value = 31

[[record]]
item_smiles = "CNc1ccc(-c2ccc3ncc4c(c3c2)n(-c2ccc(N(C)CCOC)nc2C)c(=O)n4C)cn1"
recorded_endpoint = "IC50"
measured_value = 46

[[record]]
item_smiles = "CNc1ncc(-c2ccc3ncc4c(c3c2)n(-c2ccc(N(C)CCOC)nc2C)c(=O)n4C)cn1"
recorded_endpoint = "IC50"
measured_value = 39

[[record]]
item_smiles = "CNc1ncc(-c2ccc3ncc4c(c3c2)n(-c2ccc(N3CC[C@H](O)C3)nc2C)c(=O)n4C)cc1F"
recorded_endpoint = "IC50"
measured_value = 44


###

Test: Parallel Artificial Membrane Permeability Assay (PAMPA) at pH 6.8
Assay type: physicochemical
Please use label 1 for HT-Perm logPe pH6.8 under -4 and label 0 for everything else, ties included.

[[record]]
compound = "COC1CCN(c2ccc(-n3c(=O)n(C)c4cnc5ccc(-c6cncc(C(C)(C)O)c6)cc5c43)c(C)n2)C1 (centres unmarked) [Example 28.1]"
group_label = "label 1"

[[record]]
compound = "Cc1nc(N2CCC2)ccc1-n1c(=O)n(C)c2cnc3ccc(-c4cncc(C(C)(C)O)c4)cc3c21 [Example 23.3]"
group_label = "label 1"

[[record]]
compound = "Cc1cc(F)ncc1-n1c(=O)n(C)c2cnc3ccc(-c4cnc(N)c(C(F)(F)F)c4)cc3c21 [Example 16.1]"
group_label = "label 0"

[[record]]
compound = "Cc1nc(N2CC(F)(F)C(F)(F)C2)ccc1-n1c(=O)n(C)c2cnc3ccc(-c4cncc(C(C)(C)O)c4)cc3c21 [Example 35.1]"
group_label = "label 1"

[[record]]
compound = "CCOc1ccc(-c2ccc3ncc4c(c3c2)n(-c2ccc(N(C)C)nc2C)c(=O)n4C)cn1 [Example 19.3]"
group_label = "label 1"

[[record]]
compound = "Cc1nc(N2CCN(C)C(=O)C2)ccc1-n1c(=O)n(C)c2cnc3ccc(-c4cnc(N)c(C(F)(F)F)c4)cc3c21 [Example 21.1]"
group_label = "label 1"

[[record]]
compound = "Cc1nc(N2CC[C@H](O)C2)ccc1-n1c(=O)n(C)c2cnc3ccc(-c4cncc(OC(C)C)c4)cc3c21 [Example 32.8]"
group_label = "label 0"

[[record]]
compound = "Cc1ncccc1-n1c(=O)n(C)c2cnc3ccc(-c4cncc(NC(C)C)c4)cc3c21 [Example 2.24]"
group_label = "label 1"

[[record]]
compound = "COCCOc1cncc(-c2ccc3ncc4c(c3c2)n(-c2ccc(OC)nc2OC)c(=O)n4C)c1 [Example 8.8]"
group_label = "label 0"

[[record]]
compound = "Cc1nc(C(C)(C)O)ccc1-n1c(=O)n(C)c2cnc3ccc(-c4cncc(C(C)(C)C#N)c4)cc3c21 [Example 31.6]"
group_label = "label 1"

[[record]]
compound = "Cc1nc(N(C)C)ccc1-n1c(=O)n(C)c2cnc3ccc(-c4cncc(N)c4)cc3c21 [Example 19.5]"
group_label = "label 1"

[[record]]
compound = "CNc1ncc(-c2ccc3ncc4c(c3c2)n(-c2ccc(F)nc2C)c(=O)n4C)cc1C(F)(F)F [Example 7.13]"
group_label = "label 0"

[[record]]
compound = "Cc1ncccc1-n1c(=O)n(C)c2cnc3ccc(-c4ccc5nccn5c4)cc3c21 [Example 2.23]"
group_label = "label 1"


###

Reported log10(solubility thermodynamic) values for the following compounds.
Assay: High-throughput equilibrium solubility at pH 6.8
Format: physicochemical
Details: pH 6.8, aqueous buffer, thermodynamic from solid; read-out: HT-Eq Sol/pH 6.8
Recorded Endpoint: log10(solubility thermodynamic) (log10 of the value in µg/mL)

[[record]]
item_smiles = "Cc1nc(N2CCC2)ccc1-n1c(=O)n(C)c2cnc3ccc(-c4cncc(N5CCC5)c4)cc3c21"
measured_value = 1.34

[[record]]
item_smiles = "CCOc1ccc(-c2ccc3ncc4c(c3c2)n(-c2ccc(F)nc2C)c(=O)n4C)cn1"
measured_value = 0.30

[[record]]
item_smiles = "CNc1cc(-c2ccc3ncc4c(c3c2)n(-c2cccnc2C)c(=O)n4C)cnc1C"
measured_value = 2.10

[[record]]
item_smiles = "CNC(=O)c1cc(-c2ccc3ncc4c(c3c2)n(-c2ccc(F)nc2C)c(=O)n4C)cnc1N"
measured_value = 0.48

[[record]]
item_smiles = "COCc1ncc(-c2ccc3ncc4c(c3c2)n(-c2ccc(N3CCC3)nc2C)c(=O)n4C)cc1OC(C)C"
measured_value = 2.42

[[record]]
item_smiles = "Cc1ncccc1-n1c(=O)n(C)c2cnc3ccc(-c4cncc(NC(C)C)c4)cc3c21"
measured_value = 2.29

[[record]]
item_smiles = "CCNc1cc(-c2ccc3ncc4c(c3c2)n(-c2ccc(OC)nc2C)c(=O)n4C)cnc1C"
measured_value = 0.48

[[record]]
item_smiles = "CNc1ncc(-c2ccc3ncc4c(c3c2)n(-c2ccc(N(C)CCO)nc2C)c(=O)n4C)cn1"
measured_value = 1.36

